target under test: PLL3 (Photorhabdus laumondii subsp. laumondii, UniProt Q7N8I7)
Sequence (Q7N8I7 entry or part of it): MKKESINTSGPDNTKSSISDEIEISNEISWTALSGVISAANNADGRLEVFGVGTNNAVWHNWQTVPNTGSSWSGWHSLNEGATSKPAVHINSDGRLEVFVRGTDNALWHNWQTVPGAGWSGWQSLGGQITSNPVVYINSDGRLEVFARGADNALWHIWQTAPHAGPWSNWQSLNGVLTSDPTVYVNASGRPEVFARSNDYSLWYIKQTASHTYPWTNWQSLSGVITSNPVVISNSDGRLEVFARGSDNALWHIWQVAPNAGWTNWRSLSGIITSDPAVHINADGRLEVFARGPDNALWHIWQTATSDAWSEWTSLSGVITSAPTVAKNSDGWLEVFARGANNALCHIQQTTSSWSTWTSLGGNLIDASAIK
assay text: Isothermal titration calorimetry (ITC)
Format: binding
reported conditions: KD, stoichiometry fixed to 3, 25 °C
assay readout: Kd
Express your answer as a number followed by its unit.

The reported Kd of the compound O=C[C@H](O)[C@@H](O)[C@@H](O)[C@H](O)CO was 2.8 mM

###

Listing: pKd of selected molecules
target under test: PLL3 (Photorhabdus laumondii subsp. laumondii, UniProt Q7N8I7)
assay text: Isothermal titration calorimetry (ITC)
Type: binding
reported conditions: stoichiometry fixed to 4, 25 °C, read-out: KD
Please report pKd as the negative decimal logarithm of the molar concentration, giving only the number.

Example results:
CO[C@@H]([C@H](O)[C@H](O)CO)[C@@H](O)C=O [3-O-methyl-D-glucose] = 1.95
C[C@H](O)[C@@H](O)[C@@H](O)[C@H](O)C=O [L-fucose] = 2.48
OC[C@H]1OC(O)[C@H](O)[C@@H](O)[C@@H]1O (stereo partly drawn) [D-glucose] = 2.44

Item CO[C@@H]1O[C@@H](C)[C@@H](O)[C@@H](O)[C@@H]1O [methyl α-L-fucopyranoside] ; assay system PLL3 (Photorhabdus laumondii subsp. laumondii, UniProt Q7N8I7); pKd reported as 3.15
